System: HCC1937
Assay Name: relative cell viability, compound + RSL3, vs DMSO (fraction of DMSO control); higher = less growth inhibition
Assay Setup: 72 h

Compound	Subject Of Test	relative cell viability
C[C@H](CCOc1cccc(CC(=O)O)c1)N(Cc1cccc(C(F)(F)F)c1Cl)CC(c1ccccc1)c1ccccc1 [RGX-104 free Acid] + COC(=O)c1ccc([C@H]2c3[nH]c4ccccc4c3C[C@H](C(=O)OC)N2C(=O)CCl)cc1 [RSL3]	HCC1937	0.333
CC1CC(OC(=O)C(O)c2ccccc2)CC(C)(C)C1 (stereo not given) [Cyclandelate] + COC(=O)c1ccc([C@H]2c3[nH]c4ccccc4c3C[C@H](C(=O)OC)N2C(=O)CCl)cc1	HCC1937	0.808
CN(C)c1cccc(-c2c3c(=O)n(-c4ccccc4Cl)[nH]c3cc(=O)n2C)c1 + COC(=O)c1ccc([C@H]2c3[nH]c4ccccc4c3C[C@H](C(=O)OC)N2C(=O)CCl)cc1	HCC1937	0.433
COc1c(/C=C/C(=O)c2ccc(O)cc2)ccc(O)c1CC=C(C)C + COC(=O)c1ccc([C@H]2c3[nH]c4ccccc4c3C[C@H](C(=O)OC)N2C(=O)CCl)cc1	HCC1937	0.579
NC(=O)c1ncn([C@@H]2O[C@H](CO)[C@@H](O)[C@H]2O)c1N [AICAR (Acadesine)] + COC(=O)c1ccc([C@H]2c3[nH]c4ccccc4c3C[C@H](C(=O)OC)N2C(=O)CCl)cc1	HCC1937	0.646

====

System: HCC1937
Assay Name: relative cell viability, compound alone, vs DMSO (fraction of DMSO control); higher = less growth inhibition
Assay Setup: 72 h
Structures can show the parent of a compound that is named as a salt.
Lab note - cut at 0.8 for relative cell viability: Satisfied if strictly below, Not satisfied if not.

Compound	Class Label
CCC1C(O)C2C3CCC(C(C)CCO)C3(C)CCC2C2(C)CCC(O)CC12 (stereo not drawn)	Not satisfied
COc1ccc(-c2coc3cc(OC)ccc3c2=O)cc1	Satisfied
CN(CCOc1ccc(CC2SC(=O)NC2=O)cc1)c1ccccn1 (stereo not drawn) [Rosiglitazone maleate]	Not satisfied
O=C(O)CC[C@H](O)C(=O)O [L-2-Hydroxyglutaric acid disodium]	Not satisfied
CCCCCCCCCCCCCCCC(=O)NCCO	Not satisfied
Cc1c(C)c2c(c(C)c1O)CCC(C)(COc1ccc(CC3SC(=O)NC3=O)cc1)O2 (stereo not drawn)	Satisfied
Cc1cc([N+](=O)[O-])ccc1NS(=O)(=O)c1cc(Cl)ccc1Cl	Satisfied
COc1ccc(C2(CNC(=O)c3ccc(NC(=O)c4ccco4)cc3)CCOCC2)cc1	Not satisfied
CCOP(=O)(OCC)C(=Cc1cc(C(C)(C)C)c(O)c(C(C)(C)C)c1)P(=O)(OCC)OCC	Satisfied
Cc1nc2ccc(NCc3cccc(C(F)(F)F)c3)cc2n(CCNC(=O)CO)c1=O	Satisfied
COc1cc(N2CCN(C)CC2)ccc1Nc1ncc2c(n1)N(C)c1ccccc1C(=O)N2	Satisfied
COc1cccc(-n2c(=O)[nH]c3cc(Cl)n(-c4ccc(-c5cccc(OC)c5O)cc4)c3c2=O)c1	Not satisfied
Cc1nc2ccc(C(=O)N3CCC4(CC3)CC(=O)c3c(cnn3C(C)C)C4)cc2[nH]1	Satisfied
CCNC1(C(N)=O)CCN(c2ncnc3c2nc(-c2ccccc2Cl)n3-c2ccc(Cl)cc2)CC1	Not satisfied
O=C1c2cc(CO)cc(O)c2C(=O)c2c(O[C@@H]3O[C@H](CO)[C@@H](O)[C@H](O)[C@H]3O)cccc21 [Aloe-emodin-8-O-beta-D-glucopyranoside]	Satisfied
O=C(O)c1cccnc1Nc1cccc(C(F)(F)F)c1	Not satisfied
